Test system: Calf thymus DNA
assay.details: Displacement of ethidium bromide from calf thymus DNA
Assay type: nucleic-acid assay
test.conditions: Bos taurus
Please note: rule met applies when logKA is 6 or greater, and rule not met applies otherwise.

Lookup: Is it the case that CC1CCN(CCc2nc3ccccc3c3nc4ccccc4n23)CC1 has logKA reaching or exceeding 6?
Found: rule met

Lookup: Confirm if logKA reported for the molecule O=C(CCN1CCOCC1)Nc1ccccc1-c1nc2ccccc2[nH]1 is 6 or above.
Found: rule not met

Lookup: Could you please find out whether CN1CCN(CC(=O)Nc2ccccc2-c2nc3ccccc3[nH]2)CC1 has logKA that meets 6 or exceeds it?
Found: rule not met

---
Lookup: Answer whether logKA of CCN(CC)CCOc1ccc2c(c1)C(=O)c1cc(OCCN(CC)CC)ccc1-2 is greater than or equal to 6.
Found: rule met

Lookup: Does the reported logKA for CC1CCCCN1CCc1nc2ccccc2c2nc3ccccc3n12 (stereo not given) fall at or above the 6 mark?
Found: rule met

Lookup: Record CN1CCN(CCC(=O)Nc2ccccc2-c2nc3ccccc3[nH]2)CC1 ; criterion: logKA no lower than 6. Met?
Found: rule not met

Lookup: hey, is logKA for this one >= 6? c1ccc2c(c1)nc(CN1CCOCC1)n1c3ccccc3nc21
Found: rule not met
